Data provenance is ChEMBL document CHEMBL3988442.

Some compounds, each annotated with its measured Percent Effect.
Tested on: Wolbachia pipientis
PROTOCOL_TEXT: Anti-Wolbachia Cell-Based Screen
Assay type: functional
Parameters: scale not given: in the data most compounds retested in dose-response had high values
CONDITION_DETAILS: 5 µM
In all, about 48,000 compounds went through this assay and about 13,000 (27%) showed an effect of 50% or more. Some of the results follow.
Answer with a number only, understood to be in %.

Would you please look over these solved cases?
Cc1ccc(S(N)(=O)=O)cc1C(=O)N1CCc2c(ncnc2N(C)C)C1; -11.64
O=C(CCc1ccc(Br)cc1)NCc1nnc[nH]1; -10.7
COCCN1CCC(NC(=O)C(C)C)CC1; -12.29
Cc1cc(CCC(=O)N2CC[C@H](O)C2)ccc1Br; 2.583
Cc1nc(C(C)C)sc1CNC(=O)CCCN1CCCCC1; -2.668
O=C(c1cnc(NCCC2CCCO2)c(Cl)c1)N1CCOCC1 (stereo not given); -6.598
O=C(Nc1ccccc1F)NC1(CO)CCOCC1; 2.484
Cc1ccc2c(c1)c(CNC(=O)C1CCN(C(C)C)CC1)nn2C; -24.27
CCCc1nc(N(C)CCc2noc(C(C)C)n2)c2cnn(C)c2n1; 13.53
CCCn1cnnc1CNC(=O)C1COc2cc(OC)ccc2C1 (stereo not given); -15.52

State the recorded Percent Effect for this entry: COCCN1CCC(NCc2ccc(F)cc2F)C1 (stereo not given)
87.91

Now this one: "Cc1occc1CN(C)C(=O)Nc1ccc(=O)n(C)c1"
5.737

Now this one: "CCN1CCN(CCNC(=O)c2sc(C(C)C)nc2C)CC1"
114.4

Now this one: "COCCNC(=O)C1(c2ccccc2C)CCOCC1"
3.195

Now this one: "COCCNC(=O)NC1(c2nc(C)no2)CCCCC1"
-1.61

Now this one: "CC(C)n1nc(CNc2ncccn2)c2c1CN(C1CCOCC1)CC2.O=C(O)C(F)(F)F"
3.818
